test: HepG2 cell viability effects, profiling panel, calcein-AM fluorescence, 48 h, basal (AID 1164); also: test concentration not given here
condition.context: higher = more signal
observable: z-score
Form rule: numeric answer, no unit written next to it.

# count of solved cases: 5
mol.smiles: CCCNC(=O)[C@@H]1c2ccccc2C(=O)N(Cc2ccccc2Cl)[C@H]1c1ccc(CO)cc1
observable: z-score
observed: 2.37

mol.smiles: O=C1C[C@]2(c3ccc([N+](=O)[O-])cc3)C(=O)N(CCN3CCOCC3)c3cc(CO)ccc3[C@H]2N1CC12CC3CC(CC(C3)C1)C2
observable: z-score
observed: -0.227

mol.smiles: C=CCN1C(=O)[C@]2(O[C@H](CCn3cc(CCO)nn3)[C@@H]([Si](C)(C)c3ccc(OC)cc3)[C@@H]2C)c2cc(N3CCOC3=O)ccc21
observable: z-score
observed: -0.316

mol.smiles: O=C1C[C@@H](O)[C@@H](O)[C@@H]2[C@@H]3C(=O)N(Cc4ccc5c(c4)OCO5)C(=O)[C@@H]3CC[C@@H]12
observable: z-score
observed: 0.0538

mol.smiles: COCCOC(=O)N1C(=O)[C@@]2(c3cc(C#CCNC(N)=O)ccc31)[C@H](c1ccccc1OCCO)N1[C@H](c3ccccc3)[C@H](c3ccccc3)OC(=O)[C@H]1[C@@H]2C(=O)N1CCN(c2ncccn2)CC1
observable: z-score
observed: 1.37

Task item: If you can, please state the reported z-score value of `CCc1cc2c(nc1CC)CCN(CCC(C)=NOC[C@@H](O)[C@H]1O[C@@H]3OC(C)(C)O[C@@H]3[C@H]1O)C2` .
Reply: 1.09

Task item: If you can, please state the reported z-score value of `CCCNC(=O)[C@@H]1c2ccccc2C(=O)N(c2ccc(C)cn2)[C@H]1c1ccc(CO)cc1` .
Reply: -0.108

Task item: If you can, please state the reported z-score value of `O=C1[C@H]2[C@H]3[C@H](O)[C@H](O)CC(=NOC[C@@H](O)COCc4ccco4)[C@@H]3CC[C@H]2C(=O)N1c1ccc(F)cc1F` .
Reply: -1.22

###

This listing pairs compounds with measured z-score.
test: splicing luciferase reporter signal modulators, primary screen, spliceosome inhibition project, cell-based, HEK293, splice +/- reporter (AID 1101);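 also: HEK293 cells carrying a splicing-competent luciferase reporter gene; test concentration not given here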
condition.context: luminescence, 24 h, higher = more signal, called active from +8 up or from −8 down
Form rule: numeric answer, no unit written next to it.

mol.smiles: O=C1[C@H]2[C@H]3[C@H](O)[C@H](O)CC(=NO[C@@H]4O[C@H](CO)[C@@H](O)[C@H](O)[C@H]4O)[C@@H]3CC[C@H]2C(=O)N1Cc1ccc2c(c1)OCO2
observed: 0.0977

Task item: If you can, please state the reported z-score value of `O=C1[C@H]2[C@H]3[C@H](O)[C@H](O)CC(=NOC[C@@H](O)COCc4ccco4)[C@H]3CC[C@H]2C(=O)N1Cc1ccc2c(c1)OCO2` .
Reply: 0.204

Task item: If you can, please state the reported z-score value of `C=CC[C@@H]1C=C[C@H](ON=Cc2ccc(C(=O)N3[C@H](c4ccc(C)cc4)[C@@H](C)CC[C@H]3C(=O)OC)cc2)[C@@H](CO)O1` .
Reply: -0.0467

###

system.name: Streptavidin (Streptomyces avidinii)
test: streptavidin binders on small-molecule microarray, primary screen, artefact control for SMM compound annotation, biophysical, 635/667 nm fluorescence (AID 1147);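 also: signal reflects streptavidin binding to arrayed compounds as a control protein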
condition.context: streptavidin binding, higher = more signal
observable: composite z-score
Form rule: numeric answer, no unit written next to it.

# count of solved cases: 3
compound: CCOC(=O)[C@H](CC(C)C)NC(=O)CCC1CC(OC(=O)NCc2cccc3ccccc23)CC2(CCCC(COC(=O)NCCc3ccccc3OC)O2)O1 (stereo partly drawn)
system.name: Streptavidin (Streptomyces avidinii)
composite z-score: 0.556
//
compound: CC(C)(C)OC(=O)CC[C@]1(C(=O)NCc2ccccc2)N=C(c2ccc(OCCCO)cc2)O[C@H]1c1ccccc1
system.name: Streptavidin (Streptomyces avidinii)
composite z-score: 1.58
//
compound: C=COC[C@H]1CN2[C@@H](CC[C@@H](C)[C@@H]2c2ccc(Br)cc2)C(=O)O1
system.name: Streptavidin (Streptomyces avidinii)
composite z-score: -0.0488

Task item: If you can, please state the reported composite z-score value of `C=C(CCCC)C(=O)CC[C@@H](OC(C)=O)c1cccc(OCCO)c1` .
Reply: -0.543

Task item: If you can, please state the reported composite z-score value of CS(=O)(=O)CCOC(=O)C1=CC(CCCO)=CC(c2cccs2)N(Cc2cccc(OC(F)(F)F)c2)C=C1C(=O)OCCS(C)(=O)=O (stereo not drawn) .
Reply: 1.25

Task item: If you can, please state the reported composite z-score value of `Cc1ccc(S(=O)(=O)N[C@@H]2COC(=O)[C@H](C)COC(=O)CC=C[C@H]2C)cc1` .
Reply: 0.134

Task item: If you can, please state the reported composite z-score value of `CO[C@@H]1COC(=O)CC=C[C@@H](C)COC(=O)[C@H](COCc2ccccc2)NC(=O)CC=C[C@H]1C` .
Reply: -0.214

Task item: If you can, please state the reported composite z-score value of COC(=O)[C@H](C)NC(=O)CCC1CC(OC(=O)NCCc2ccc(F)cc2)CC2(CCCC(COC(=O)NCCc3ccc(Cl)cc3)O2)O1 (stereo partly drawn) .
Reply: 1.07

###

test: E. coli acrAB mutant growth effects, primary screen, E. coli filamentation inducers, strain DRC39, OD650, 24 h (AID 1178);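 also: growth measured as culture turbidity by optical density at 650 nm; test concentration not given here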
condition.context: higher = more signal, called active from +8 up or from −8 down
Threshold check on z-score: at or above -0.3 gives yes (1), strictly below gives no (0).

// known answers, use as guide
compound: CCOC(=O)[C@H](CC(C)C)NC(=O)CCC1CC(OC(=O)NCc2cccc3ccccc23)CC2(CCCC(COC(=O)NCCc3ccccc3OC)O2)O1 (some centres not stated)
classification: no (0)
//
compound: COC(=O)[C@@]1(Cc2ccc(F)cc2)[C@@H]2C(=CC(=O)[C@H]2CC(=O)C(=O)N(C)C)CN1C(=O)c1ccccc1
classification: yes (1)
//
compound: COc1ccc(-c2nc3c(c4c2C[C@H](C)OC4)CN(CCC(C)C)CC3)cc1
classification: yes (1)
//
compound: N#Cc1ccc(NN2C(C(O)c3cccc4ccccc34)C=CC3C(=O)N(c4ccccc4)C(=O)C32)cc1 (configuration not stated)
classification: no (0)

Task item: In plain terms: is recorded z-score at least -0.3 for `CCCC=C(CCC)[C@@H](NC(=O)c1ccc(-c2ccccc2)cc1)c1ccc(C(=O)OC)cc1` ?
Reply: yes (1)

Task item: In plain terms: is recorded z-score at least -0.3 for `COC(=O)[C@@]1(Cc2ccc(F)cc2)[C@H]2c3cc(C(=O)N(C)C)n(Cc4ccc(OC)c(OC)c4)c3C[C@H]2CN1C(=O)c1ccccc1` ?
Reply: yes (1)

Task item: In plain terms: is recorded z-score at least -0.3 for `COCCOC(=O)N1C(=O)[C@@]2(c3ccccc31)[C@H](C(N)=O)[C@H]1C(=O)O[C@H](c3ccccc3)[C@H](c3ccccc3)N1[C@@H]2c1ccccc1OCCO` ?
Reply: yes (1)

###

test: binders of probe aFSTL3 on microarray, primary screen, stem cell growth factor project, biochemical, small-molecule microarray, fluorescence 635/667 (AID 1064);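 also: measures binding of the biotinylated anti-FSTL3 antibody to printed compounds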
condition.context: higher = more signal
observable: composite z-score
Form rule: numeric answer, no unit written next to it.

# count of solved cases: 8
compound: COC(=O)[C@@H]1N=C(c2ccc(OCCCO)cc2)O[C@@H]1c1ccccc1N=[N+]=[N-]
composite z-score: 1.64
--
compound: C/C=C\[C@@H](NCc1ccccc1Br)[C@@H](O)Cc1ccccc1
composite z-score: 1.08
--
compound: COC(=O)CC=C[C@H](C)[C@@H](OCc1ccccc1Br)C(C)C
composite z-score: -0.188
--
compound: COC(=O)[C@]1(CO)N=C(c2ccc(OCCCO)cc2)O[C@@H]1c1ccccc1N=[N+]=[N-]
composite z-score: 0.0947
--
compound: COc1ccc(O[C@H]2C=C[C@@H](c3ccccc3)O[C@@H]2COC(=O)CCC(C)=NOC[C@@H](C)[C@H](OCc2ccccc2)C(C)C)cc1
composite z-score: -0.404
--
compound: CN(C)c1ccc(C(O)C2C=CC3C(=O)N(c4ccccc4)C(=O)C3N2Nc2ccccc2F)cc1 (stereo not drawn)
composite z-score: 0.357
--
compound: CC(C)[C@@H](OCc1ccccc1)[C@H](C)C=NO[C@H](C)c1cn([C@H](CO)Cc2ccccc2)nn1
composite z-score: -0.479
--
compound: CO[C@@H]1COC(=O)[C@@H]2CCCN2C(=O)[C@@H](C)COC(=O)[C@H](COCc2ccccc2)NC(=O)CC=C[C@H]1C
composite z-score: -0.451

Task item: If you can, please state the reported composite z-score value of `O=C1[C@H]2[C@H]3[C@H](O)[C@H](O)CC(=NO[C@@H]4O[C@H](CO)[C@@H](O)[C@H](O)[C@H]4O)[C@@H]3CC[C@H]2C(=O)N1Cc1ccccc1` .
Reply: -0.466

Task item: If you can, please state the reported composite z-score value of `O=C1[C@H]2[C@H]3[C@H](O)[C@H](O)CC(=NOCc4ccccc4)[C@@H]3CC[C@H]2C(=O)N1C1CCCCC1` .
Reply: -0.116

Task item: If you can, please state the reported composite z-score value of `C[C@@H]1C=CCC(=O)OC[C@H](C)C(=O)N[C@@H](C)C(=O)OC1` .
Reply: -0.329

Task item: If you can, please state the reported composite z-score value of `O=C1c2ccccc2[C@@]2(Cc3ccccc3N(C3CC3)C2=O)[C@H](c2ccc(CO)cc2)N1Cc1ccccc1C(F)(F)F` .
Reply: 0.748

Task item: If you can, please state the reported composite z-score value of `COC(=O)CC=C[C@H](C)[C@H](CO)NS(=O)(=O)c1ccc(C)cc1` .
Reply: -0.634

Task item: If you can, please state the reported composite z-score value of `O=C(NN=C1C[C@@H](O)[C@@H](O)[C@@H]2[C@@H]3C(=O)N(c4ccc(F)cc4F)C(=O)[C@@H]3CC[C@@H]12)OCc1ccccc1` .
Reply: -0.105

Task item: If you can, please state the reported composite z-score value of `C=CCOC(=O)[C@H]1[C@@H]2C(=O)O[C@@H](c3ccccc3)[C@@H](c3ccccc3)N2[C@@H](c2ccc(OCCOC(=O)[C@H]3C[C@H]4C(=O)N5CCC[C@H]5C(=O)N4[C@H]3c3cccc(OCCO)c3)cc2)[C@]12C(=O)Nc1ccc(I)cc12` .
Reply: 1.82

Task item: If you can, please state the reported composite z-score value of `COCCOC(=O)N1C(=O)[C@@]2(c3cc(C#CCNC(N)=O)ccc31)[C@H](c1ccccc1OCCO)N1[C@H](c3ccccc3)[C@H](c3ccccc3)OC(=O)[C@H]1[C@@H]2C(=O)N1CCN(c2ncccn2)CC1` .
Reply: 0.202

Task item: If you can, please state the reported composite z-score value of `CO[C@@H]1COC(=O)[C@H](C)NC(=O)[C@@H](C)COC(=O)CCC[C@H]1C` .
Reply: -0.438

Task item: If you can, please state the reported composite z-score value of `CC(C)=NOCc1cccc(-c2cc(-c3ccccc3)no2)c1` .
Reply: -0.575

Task item: If you can, please state the reported composite z-score value of `CC(CCN1CCc2nc(-c3ccccc3)c(-c3ccccc3)cc2C1)=NOC[C@@H](C)[C@H](OCc1ccccc1)C(C)C` .
Reply: -0.0574

Task item: If you can, please state the reported composite z-score value of `Cc1cc(C)c(-c2cc([C@H](C)ON=C3[C@H]4CCn5c(=O)n(-c6ccccc6)c(=O)n5[C@H]4[C@H](O)[C@@H]4O[C@H]34)on2)c(C)c1` .
Reply: -0.437

Task item: If you can, please state the reported composite z-score value of `COCCCNC(=O)[C@]1(Cc2ccccc2)N=C(c2ccc(OCCCO)cc2)O[C@@H]1c1ccccc1` .
Reply: 0.206

Task item: If you can, please state the reported composite z-score value of `COc1ccc([Si](C)(C)[C@H]2[C@H](CCO)O[C@@]3(C(=O)N(Cc4cccc(NC(=O)[C@H](C)O)c4)c4ccccc43)[C@@H]2C)cc1` .
Reply: -0.456

Task item: If you can, please state the reported composite z-score value of `COc1ccc(O[C@H]2C=C[C@@H](c3ccccc3)O[C@@H]2CON=C[C@@H](C)[C@H](OCc2ccccc2)C(C)C)cc1` .
Reply: -0.397

Provenance of the data: PubChem BioAssay
